Target: HLA-A*02:01
Assay: IEDB peptide-MHC binding, purified MHC/competitive/fluorescence; bounds were set here for any values at or beyond the usual limits of such assays
Details: source organism: Sudan ebolavirus
OUTCOME_MEASURE: IC50 (µM)
State the answer as a number, implicitly in µM.

Prompt: For the sequence "WIPYFGPGA" , give its reported IC50.
Response: 1.46

***
Prompt: For the sequence "GLSLLQLPR" , give its reported IC50.
Response: 16.8

Prompt: For the sequence "LIWTLDANI" , give its reported IC50.
Response: 0.48

Prompt: For the sequence "AFFLYDRLA" , give its reported IC50.
Response: 35.8

###

Biological target: HLA-B*48:01
Test: IEDB peptide-MHC binding, purified MHC/direct/fluorescence; filed as Kd, often an IC50 or EC50 that approximates it; bounds were set here for any values at or beyond the usual limits of such assays
Conditions: source organism: Brucella abortus 2308
OUTCOME_MEASURE: Kd

Prompt: For the sequence "RVYKNYDPR" , give its reported Kd.
Response: ≥ 20 µM

###

Biological target: HLA-B*27:05
Assay: IEDB peptide-MHC binding, purified MHC/direct/fluorescence; filed as Kd, often an IC50 or EC50 that approximates it; bounds were set here for any values at or beyond the usual limits of such assays
Conditions: source organism: Mycobacterium tuberculosis C
OUTCOME_MEASURE: Kd

Prompt: For the sequence "IIRTENRPL" , give its reported Kd.
Response: ≥ 20 µM

###

Target: HLA-A*24:03
Experiment: IEDB peptide-MHC binding, purified MHC/direct/fluorescence; filed as Kd, often an IC50 or EC50 that approximates it; bounds were set here for any values at or beyond the usual limits of such assays
Conditions: source organism: Toxoplasma gondii
pKd: −log10 of the molar value.
OUTCOME_MEASURE: pKd

Prompt: For the sequence "VSSHKGWAK" , give its reported pKd.
Response: ≤ 4.70

###

Target: HLA-B*07:02
Assay: IEDB peptide-MHC binding, purified MHC/competitive/radioactivity; filed as Kd, often an IC50 or EC50 that approximates it; bounds were set here for any values at or beyond the usual limits of such assays
Conditions: source organism: Hepatitis C virus (isolate 1)
pKd: −log10 of the molar value.
OUTCOME_MEASURE: pKd

Prompt: For the sequence "HSKKKCDEL" , give its reported pKd.
Response: ≤ 4.11

###

Target: HLA-B*44:03
Test: IEDB peptide-MHC binding, purified MHC/competitive/radioactivity; filed as Kd, often an IC50 or EC50 that approximates it; bounds were set here for any values at or beyond the usual limits of such assays
Conditions: source organism: Mammarenavirus machupoense
OUTCOME_MEASURE: pKd
Worth noting: pKd values are minus log10 of concentrations stated in mol/L.

Prompt: For the sequence "EEVLDVCPL" , give its reported pKd.
Response: 5.26

###

Target: HLA-B*83:01
Test: IEDB peptide-MHC binding, purified MHC/competitive/fluorescence; filed as Kd, often an IC50 or EC50 that approximates it; bounds were set here for any values at or beyond the usual limits of such assays
Conditions: source organism: Bacillus anthracis str. A0488
pKd: −log10 of the molar value.
OUTCOME_MEASURE: pKd

Prompt: For the sequence "TTYVYTLPV" , give its reported pKd.
Response: ≤ 5.30

###

Target: HLA-B*27:05
Assay: IEDB peptide-MHC binding, purified MHC/direct/fluorescence; filed as Kd, often an IC50 or EC50 that approximates it; bounds were set here for any values at or beyond the usual limits of such assays
Settings: source organism: Influenza A virus (A/Turkey/MO/24093/99(H1N2))
pKd: −log10 of the molar value.
OUTCOME_MEASURE: pKd

Prompt: For the sequence "GMQIRGFVY" , give its reported pKd.
Response: ≤ 4.70

###

Biological target: HLA-B*44:02
Experiment: IEDB peptide-MHC binding, purified MHC/competitive/radioactivity; filed as Kd, often an IC50 or EC50 that approximates it; bounds were set here for any values at or beyond the usual limits of such assays
Conditions: source organism: Mammarenavirus machupoense
OUTCOME_MEASURE: Kd (µM)
State the answer as a number, implicitly in µM.

Prompt: State measured Kd of the sequence "EEVLDVCPL" with HLA-B*44:02.
Response: 13.7

###

Target: HLA-B*08:01
Assay: IEDB peptide-MHC binding, purified MHC/competitive/radioactivity; filed as Kd, often an IC50 or EC50 that approximates it; bounds were set here for any values at or beyond the usual limits of such assays
Settings: source organism: Vaccinia virus WR
Listing: Kd of selected sequences
State the answer as a number, implicitly in nM.

Prompt: For the sequence "YLLSLFSTL" , give its reported Kd.
Response: 4.02

***
Prompt: For the sequence "SMFTLRHII" , give its reported Kd.
Response: 1.81

Prompt: For the sequence "AIKLGFKSL" , give its reported Kd.
Response: 41.3

Prompt: For the sequence "LMGFRNSAL" , give its reported Kd.
Response: 1100

###

Target: HLA-A*24:03
Test: IEDB peptide-MHC binding, purified MHC/competitive/fluorescence; filed as Kd, often an IC50 or EC50 that approximates it; bounds were set here for any values at or beyond the usual limits of such assays
Settings: source organism: Influenza A virus (A/red knot/Delaware/2561/1987(H10N5))
pKd: −log10 of the molar value.
OUTCOME_MEASURE: pKd

Prompt: State measured pKd of the sequence "VMTDGPANK" with HLA-A*24:03.
Response: ≤ 4.70

###

Target: HLA-B*83:01
Test: IEDB peptide-MHC binding, purified MHC/competitive/fluorescence; filed as Kd, often an IC50 or EC50 that approximates it; bounds were set here for any values at or beyond the usual limits of such assays
Settings: source organism: Yersinia pseudotuberculosis IP 31758
OUTCOME_MEASURE: Kd

Prompt: For the sequence "RQMRASAPL" , give its reported Kd.
Response: ≥ 5 µM

###

Target: HLA-A*33:01
Experiment: IEDB peptide-MHC binding, purified MHC/competitive/radioactivity; filed as Kd, often an IC50 or EC50 that approximates it; bounds were set here for any values at or beyond the usual limits of such assays
Conditions: source organism: Vaccinia virus WR
Listing: Kd of selected sequences
State the answer as a number, implicitly in µM.

Prompt: For the sequence "TLVPVLEKK" , give its reported Kd.
Response: 14

Prompt: For the sequence "WIKNLETYTR" , give its reported Kd.
Response: 1.13

Prompt: For the sequence "DVLEIINDK" , give its reported Kd.
Response: 0.719

Prompt: For the sequence "YTHGIVFDGK" , give its reported Kd.
Response: 0.35

###

Molecular target: HLA-A*11:01
Assay: IEDB peptide-MHC binding, purified MHC/direct/fluorescence; filed as Kd, often an IC50 or EC50 that approximates it; bounds were set here for any values at or beyond the usual limits of such assays
Conditions: source organism: Mycobacterium tuberculosis variant bovis
OUTCOME_MEASURE: Kd

Prompt: For the sequence "TPREAPYEL" , give its reported Kd.
Response: ≥ 20 µM

###

Listing: pIC50 of selected sequences
Molecular target: HLA-A*24:02
Assay: IEDB peptide-MHC binding, purified MHC/competitive/fluorescence; bounds were set here for any values at or beyond the usual limits of such assays
Details: source organism: Homo sapiens
pIC50: −log10 of the molar value.

Some solved entries appear below for comparison.
Prompt: For the sequence "RQSSGSSSSGF" , give its reported pIC50.
Response: ≤ 4.70

Prompt: For the sequence "LVTMGTGTFGR" , give its reported pIC50.
Response: ≤ 4.70

***
Prompt: For the sequence "ELFARSSDPR" , give its reported pIC50.
Response: ≤ 4.70

###

Molecular target: HLA-B*46:01
Assay: IEDB peptide-MHC binding, purified MHC/competitive/fluorescence; filed as Kd, often an IC50 or EC50 that approximates it; bounds were set here for any values at or beyond the usual limits of such assays
Conditions: source organism: Influenza A virus (A/red knot/Delaware/2561/1987(H10N5))
OUTCOME_MEASURE: Kd

Prompt: State measured Kd of the sequence "VMTDGPANK" with HLA-B*46:01.
Response: ≥ 20 µM

###

Target: HLA-A*02:06
Assay: IEDB peptide-MHC binding, purified MHC/competitive/radioactivity; filed as Kd, often an IC50 or EC50 that approximates it; bounds were set here for any values at or beyond the usual limits of such assays
Settings: source organism: Dengue virus 1 Nauru/West Pac/1974
OUTCOME_MEASURE: pKd
Worth noting: pKd values are minus log10 of concentrations stated in mol/L.

Prompt: For the sequence "MLDVDLHPA" , give its reported pKd.
Response: 7.74

###

Target: HLA-A*11:01
Assay: IEDB peptide-MHC binding, purified MHC/direct/fluorescence; filed as Kd, often an IC50 or EC50 that approximates it; bounds were set here for any values at or beyond the usual limits of such assays
Conditions: source organism: Encephalitozoon cuniculi GB-M1
OUTCOME_MEASURE: Kd

Prompt: For the sequence "EAYCALLCK" , give its reported Kd.
Response: ≥ 20 µM
